# Tested on: K4 kissing-loop RNA reporter;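 further: bound reporter read as fluorescence of individual clusters on recovered sequencing chips by microscopy, with normalized cluster intensities fitted with a binding model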
# EXPERIMENT_NOTES: apparent KD of K4 kissing-loop reporter; higher = weaker reporter binding
# STATED_CONDITIONS: Eterna round: R107; input ligand: tryptophan 2.4 mM
QUANTITY_MEASURED: apparent KD of K4 kissing-loop reporter (µM)
Answer in µM, number only, no unit symbol.

Record excerpt, results attached:
Supply apparent KD of K4 kissing-loop reporter value. Item: AGUGAUGUGGGAAGGAGCGCUACAAGACUUCAGUGAUGUUGAAGUGAUGAUUUAGUGUUGUAGCAGGUAGGUCGCCUAGAUGUUA [KL-XARG-B9] 0.0391

Return reported apparent KD of K4 kissing-loop reporter. Input sequence: ACGUCCCGUUUACUCGUGGGUUAGGUCGAUACCAGUAUUCAAACUUACCCUUGGCAGCGACAUGAGUGAUGUUCAUGUGCGAAGA [KL-XTheo-A5 #analogue] 0.104

Supply measured apparent KD of K4 kissing-loop reporter of AAUACAGUACAACCGAGUGGAACACAAAUACGAGGACCGGUACGGCCGCCACUCGUGCAGAAUUUCAGUGAUGUUGAAAUACUGC [Exclusion Tryptophan A GF 6] in your reply. 0.149

Please look at this sequence and report its apparent KD of K4 kissing-loop reporter: UGUUUUUACUGAAGGAGCGGCAAUUGAUACGUAGAUAUAGUGAUGUUAUAUAAGAUAGAGAGCCAGGUAGGUCGCAGAAUGAAUC [ExArgB.aD] 0.156

Indicate the recorded apparent KD of K4 kissing-loop reporter value for this sequence: CUUGAUGGAAACAUCGAGUAGAUUACUGAUACCAGUAUCGAUAGAUACCCUUGGCAGCAGAAUCAGUAAUCACGAGUGAUGUUCG [Ex Theophylline A K4 7] 0.485

Next:
Input CAUAGGAAACUAUGUUUCUCUCUUACUGAAGGAGCGCGUGAAAACGCAGGUAGGUCGCAGAAUUUAAAAGAGAGUGAUGUUCUCA [Ex Arginine A K4 11] , output reported apparent KD of K4 kissing-loop reporter. 0.446
